- Experimental System: UniProt P61073
- Assay Summary: Inhibition of SDF-1 binding to CXCR4 (unknown origin)
Measured Metric: IC50

Worked examples, 5 compounds total:
{"Compound": "CN(CCc1ccccc1)C[C@@H]1CCN(CCc2c[nH]c3ccc(-n4cnnc4)cc23)C1", "Measured Metric": "IC50", "Readout Value": "7 to 20 nM"}
{"Compound": "c1ccc(CCNC[C@@H]2CCN(CCc3c[nH]c4ccc(-n5cnnc5)cc34)C2)cc1", "Measured Metric": "IC50", "Readout Value": "7 to 20 nM"}
{"Compound": "Cc1ccsc1CN1CCC2(CC1)CCN(Cc1ccc(C(=O)N(Cc3ncc[nH]3)Cc3ncc[nH]3)cc1)C2", "Measured Metric": "IC50", "Readout Value": "11 nM"}
{"Compound": "CC(C)(NC[C@@H]1CCN(CCc2c[nH]c3ccc(-n4cnnc4)cc23)C1)c1ccccc1", "Measured Metric": "IC50", "Readout Value": "7 to 20 nM"}
{"Compound": "CC(C)Oc1ccc(-c2ccc3ccn(CC(=O)NCCN(C)C4CCCCC4)c3c2)cc1", "Measured Metric": "IC50", "Readout Value": "< 1000 nM"}

Please turn your attention to the following entry.
Input CC(NC[C@@H]1CCN(CCc2c[nH]c3ccc(-n4cnnc4)cc23)C1)c1ccccc1 (stereo partly specified) , output reported IC50.
7 to 20 nM

---

// reported pIC50 for each item listed
- Experimental System: C-X-C chemokine receptor type 4 (Homo sapiens)
- Assay Summary: Antagonist activity at CXCR4 (unknown origin)
- Type: functional
Lab note: report pIC50 as minus log10 of the concentration in molar units, number only.

{"Substance Smiles": "COc1ccc(NC(=O)NCCc2ccc3c(n2)NCCC3)cc1OC", "pIC50": 6.17}
{"Substance Smiles": "FC(F)(F)c1ccc(NC(=S)NCCc2ccc3c(n2)NCCC3)cc1", "pIC50": 6.70}
{"Substance Smiles": "O=C(NCCc1ccc2c(n1)NCCC2)Nc1ccc(C(F)(F)F)cc1", "pIC50": 6.22}
{"Substance Smiles": "CC(C)c1ccccc1NC(=O)NCCc1ccc2c(n1)NCCC2", "pIC50": 6.10}
{"Substance Smiles": "Cn1ccc2c(NC(=O)NCCc3ccc4c(n3)NCCC4)cccc21", "pIC50": 6.40}

Please turn your attention to the following entry.
Consider the compound O=C(NCCc1ccc2c(n1)NCCC2)Nc1cccc2ccccc12 tested on C-X-C chemokine receptor type 4 (Homo sapiens); state its pIC50.
6.22

---

// reported IC50 for each item listed
- Experimental System: C-X-C chemokine receptor type 4 (Homo sapiens, UniProt P61073)
- Sequence (P61073 whole entry): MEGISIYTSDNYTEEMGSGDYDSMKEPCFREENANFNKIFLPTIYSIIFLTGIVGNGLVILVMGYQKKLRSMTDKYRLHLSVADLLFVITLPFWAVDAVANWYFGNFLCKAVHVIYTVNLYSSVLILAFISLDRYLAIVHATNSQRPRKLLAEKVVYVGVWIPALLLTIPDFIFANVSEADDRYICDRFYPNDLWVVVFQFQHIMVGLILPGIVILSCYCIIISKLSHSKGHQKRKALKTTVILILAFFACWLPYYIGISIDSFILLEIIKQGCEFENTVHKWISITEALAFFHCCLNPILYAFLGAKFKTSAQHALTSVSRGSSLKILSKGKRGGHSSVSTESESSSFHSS
- Assay Summary: Displacement of [125I]SDF-1 from human CXCR4 expressed in HEK293 cell membranes after 1.5 hrs by Topcount method
Write down the value, and be sure its unit follows.

{"Compound": "CCN(CC)CCCC(C)Nc1cc(/C=C/c2ccc([N+](=O)[O-])cc2)nc2cc(OC)ccc12 (configuration not stated)", "Experimental System": "C-X-C chemokine receptor type 4 (Homo sapiens, UniProt P61073)", "Readout Value": "2160 nM"}

Please turn your attention to the following entry.
Input c1ccc2c(NC3CCNCC3)nc(NCc3ccc(CNCCCNC4CCCCC4)cc3)nc2c1 , output reported IC50.
36.2 nM

---

- Experimental System: C-X-C chemokine receptor type 4 (Homo sapiens)
- Assay Summary: Displacement of [125I]SDF-1alpha from CXCR4 in human MT4 cells after 2 hrs by scintillation counting analysis
- Type: cell-based
Measured Metric: pIC50
Lab note: report pIC50 as minus log10 of the concentration in molar units, number only.

Input C[C@H](NC(=O)[C@H](CCCNC(=N)N)NC(=O)c1ccc(CNCc2ccccn2)cc1)c1cccc2ccccc12 , output reported pIC50.
7.89

---

- System: Human immunodeficiency virus 1
- Assay Summary: Antiviral activity against HIV1 NL4-3 infected in human PBMC after 1 hr by ELISA
- Format: functional, organism-based
- Stated Conditions: Human immunodeficiency virus 1, NL4-3, PBMC
Measured Metric: IC50

Consider the compound Clc1cc(CN2CCCNCCNCCCNCC2)cc(Cl)n1 tested on Human immunodeficiency virus 1; state its IC50.
1.2 to 26.5 µM

---

- Test system: Human immunodeficiency virus 1
- Assay Summary: Antiviral activity against HIV1 infected in human PBMC measured at 7 to 10 days post infection by ELISA
- Format: functional, organism-based
- Stated Conditions: Human immunodeficiency virus 1, PBMC
// reported pEC50 for each item listed
Lab note: report pEC50 as minus log10 of the concentration in molar units, number only.

Worked examples, 2 compounds total:
{"Substance Smiles": "CC(C)CN(CCCCNC(=O)c1ccc(CN(Cc2ncc[nH]2)Cc2ncc[nH]2)cc1)CC(C)C", "pEC50": 8.52}
{"Substance Smiles": "CCCN(CCC)CCCCNCc1ccc(CN(Cc2ncc[nH]2)Cc2ncc[nH]2)cc1", "pEC50": 8.70}

Consider the compound CCCN(CCC)Cc1ccc(NC(=O)c2ccc(CN(Cc3ncc[nH]3)Cc3ncc[nH]3)cc2)cc1 tested on Human immunodeficiency virus 1; state its pEC50.
8.70

---

- Test system: Human immunodeficiency virus 1
- Assay Summary: Antiviral activity against HIV1 assessed as inhibition of virus induced cytopathic effect
- Format: functional, organism-based
Measured Metric: EC50 (nM)
The response must be a number in nM with no trailing unit.

Worked examples, 2 molecules total:
{"Substance Smiles": "c1ccc(CNCc2ccc(CN3CCNCCCOCCCNCC3)cc2)nc1", "EC50 [nM]": 4}
{"Substance Smiles": "c1ccc(CNCc2ccc(CN3CCCNCCNCCCNCC3)cc2)nc1", "EC50 [nM]": 9}

Input c1ccc(CNCc2ccc(CN3CCNCCc4cccc(n4)CCNCC3)cc2)nc1 , output reported EC50.
1

---

- Assay Summary: Bioavailability in Wistar rat at 200 mg/ml/kg administered intraduodenal by LC-MS analysis
- Assay type: ADME, organism-based
- Stated Conditions: in vivo
Measured Metric: bioavailability

Input C[C@H](NC(=O)[C@H](CCCNC(=N)N)NC(=O)c1ccc(CNCc2ccccn2)cc1)c1cccc2ccccc12 , output reported bioavailability.
7%

---

- Experimental System: C-X-C chemokine receptor type 4 (Homo sapiens)
- Assay Summary: Antagonist activity at CXCR4 (unknown origin)
- Assay type: functional
Measured Metric: IC50

Worked examples, 3 compounds total:
{"Substance Smiles": "CN1CCN(c2cc(N)nc(NCc3ccc(CNCCCNC4CCCCC4)cc3)n2)CC1", "Measured Metric": "IC50", "Readout Value": "< 20 nM"}
{"Substance Smiles": "Nc1cc(N2CCNCC2)nc(NCc2ccc(CNCCCNC3CCCCC3)cc2)n1", "Measured Metric": "IC50", "Readout Value": "< 20 nM"}
{"Substance Smiles": "COc1ccc2[nH]c(CNCc3ccc(CN(CCNCc4ccccn4)CCNCc4ccccn4)cc3)nc2c1", "Measured Metric": "IC50", "Readout Value": "4 to 100 nM"}

Please turn your attention to the following entry.
Input c1ccc(CNCCN(CCNCc2ccccn2)Cc2ccc(CNCc3nc4ccccc4[nH]3)cc2)nc1 , output reported IC50.
4 to 100 nM
